The origin of these recorded values is paper PMC4096598.

I'd appreciate it if you could supply MIC E. coli values for the items below.
tested on: Escherichia coli (ATCC 25922)
Ends that are not written are not given here.
Give bare numbers, in µM.

[
  {
    "Residue Sequence": "FWGALAKGALKLIGPGSLFSSFSKKD [Pin2 [GPG]]",
    "System Tested": "Escherichia coli (ATCC 25922)",
    "Unit Text": "µM",
    "MIC E. coli": 25
  }
]

Hi! Can you tell me MIC E. coli for each of these sequences?
1. FWGLKGLKGPGKFSKKL [Pin2 [17]]
2. FWGALAKGALKLIPSLFSSFSKKD [Pin2, Pandinin 2, reference compound]
3. FWGALAKGALKLIGSLFSSFSKKD [Pin2 [G]]
4. FWGLKGLKKFSKKL [Pin2 [14]]

Result:
25
18.8
12.5
25

====

tested on: Mycobacterium tuberculosis H37Rv (ATCC 27294); conditions: 24 h
Ends that are not written are not given here.
I'd appreciate it if you could supply MIC Mycobacterium tuberculosis H37Rv values for the items below.

# count of solved cases: 2
[
  {
    "Residue Sequence": "FWGLKGLKKFSKKL [Pin2 [14]]",
    "System Tested": "Mycobacterium tuberculosis H37Rv (ATCC 27294)",
    "Metric Name": "MIC Mycobacterium tuberculosis H37Rv",
    "Assay Value": "11.92 ± 3.7 µM"
  },
  {
    "Residue Sequence": "FWGALAKGALKLIPSLFSSFSKKD [Pin2, Pandinin 2, reference compound]",
    "System Tested": "Mycobacterium tuberculosis H37Rv (ATCC 27294)",
    "Metric Name": "MIC Mycobacterium tuberculosis H37Rv",
    "Assay Value": "22.1 ± 8.6 µM"
  }
]

Hi! Can you tell me MIC Mycobacterium tuberculosis H37Rv for each of these sequences?
1. FWGALAKGALKLIGPGSLFSSFSKKD [Pin2 [GPG]]
2. FWGALAKGALKLIGSLFSSFSKKD [Pin2 [G]]

Result:
29 ± 9 µM
18.7 µM
